Data origin: PubChem BioAssay

# MEASUREMENT DESCRIPTION: binders of probe aHhip on microarray, primary screen, stem cell growth factor project, biochemical, small-molecule microarray, fluorescence 635/667 (AID 1087);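 further: score merges spot fluorescence at 667nm with spot signal to noise ratio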
# RUN PARAMETERS: higher = more signal
In this section, each of the compounds is paired with its reported composite z-score.
Number only, no unit.

These solved cases illustrate the format of a correct answer.
{"COMPOUND": "CCOC(=O)C[C@H]1[C@H](OC(=O)c2ccc(-c3ccccc3)cc2)[C@@H](NC(=O)Cc2ccc(OC)cc2)c2cc(OCCCO)ccc2N1C(=O)c1ccccc1", "VALUE OBSERVED": -0.0391}
{"COMPOUND": "CN1C=C(C(=O)OCCS(C)(=O)=O)C(C(=O)OCCS(C)(=O)=O)=CC(c2ccc(CO)cc2)=CC1C1CC1 (centres undefined)", "VALUE OBSERVED": -0.0994}
{"COMPOUND": "C=C(COC)/C(=C/C[C@H](OC(C)=O)c1ccc(CO)o1)c1cc(C(=O)OC)ccc1OC", "VALUE OBSERVED": 0.0749}

Okay, now this compound:
// query Given `CCOC(=O)C[C@H]1[C@H](OC(=O)c2ccc(C(=O)c3ccccc3)cc2)[C@@H](NC(=O)c2ccccc2)c2cc(OCCCO)ccc2N1C(=O)Cc1ccc(OC)cc1` , state its recorded composite z-score.
// result -0.0237

###

# MEASUREMENT DESCRIPTION: FRG1 promoter luciferase signal modulators, primary screen, FRG1 inhibition for FSHD, cell-based, C2C12 myotubes, firefly/Renilla luciferase, luminescence (AID 1084)
# RUN PARAMETERS: higher = more signal, called active from +8 up or from −8 down
// values below are reported z-score
Response field accepts a number only; no unit should be typed.

{"COMPOUND": "[N-]=[N+]=NCc1ccccc1C[C@]1(C(=O)N2CCCCC2)N=C(c2ccc(OCCCO)cc2)O[C@H]1c1ccccc1N=[N+]=[N-]", "QUANTITY": "z-score", "VALUE OBSERVED": -1.99}
{"COMPOUND": "CN(C)C(=O)[C@@]1(CCS(=O)(=O)c2ccccc2)COC(c2ccc(OCCCO)cc2)=N1", "QUANTITY": "z-score", "VALUE OBSERVED": -2.05}
{"COMPOUND": "C=CC1(C(=O)OC)CC=C(C(=O)OC)CC1 (configuration not stated)", "QUANTITY": "z-score", "VALUE OBSERVED": -0.941}
{"COMPOUND": "O=C(CS)NCCCCCCNC(=O)[C@@H]1C[C@@H]2C(=O)N[C@@H](Cc3ccccc3)C(=O)N2[C@@H]1c1cccc(OCCO)c1", "QUANTITY": "z-score", "VALUE OBSERVED": 3.09}
{"COMPOUND": "C=CCOC(=O)[C@@H]1[C@H]2C(=O)O[C@H](c3ccccc3)[C@H](c3ccccc3)N2[C@H](c2ccc(OCCOC(=O)[C@@H]3C[C@@H]4C(=O)NCC(=O)N4[C@@H]3c3ccc(O)cc3)cc2)[C@@]12C(=O)Nc1ccc(I)cc12", "QUANTITY": "z-score", "VALUE OBSERVED": 1.12}

// query Tell me the measured z-score of COc1cc(Br)cc(C(O)C2C=CC3C(=O)N(C)C(=O)C3N2N2CCCCC2)c1OC (configuration not stated) , please.
// result 0.876

// query What about `C=CC[C@]1(C(=O)NCCCOC)N=C(c2ccc(OCCCO)cc2)O[C@H]1c1ccccc1CN=[N+]=[N-]` ?
// result 0.373

// query Please give the result for COc1cc2c(cc1O)C(c1cccs1)N(C)CC2 (configuration not stated) too.
// result 0.52

// query Also, `COc1ccc(-c2cc3c(c(-c4ccc(Oc5ccccc5)cc4)n2)[Si](C(C)C)(C(C)C)OC3)cn1` please.
// result -0.211

// query // same read-out, input: `O=C(NCCN1CCOCC1)[C@@H]1c2ccccc2C(=O)N(C2CCCCC2)[C@H]1c1ccc(CO)cc1`
// result -0.658

// query Ok, now `O=C1C[C@@](C(=O)NCCN2CCOCC2)(c2ccc([N+](=O)[O-])cc2)[C@@H](c2ccc(CO)cc2I)N1CC12CC3CC(CC(C3)C1)C2`
// result -2.84

// query Same question for CC1(C)C2C=C(C(O)C3C=CC4C(=O)NC(=O)C4N3Nc3ccc(Cl)cc3Cl)C[C@@H]1C2 (some centres not stated) please.
// result -0.505

// query Now give it for `O=C(c1ccccc1)N1C(=O)[C@]2(COC(c3ccc(OCCCO)cc3)=N2)Cc2ccccc21` too.
// result 1.23

// query For `COc1ccc([Si](C)(C)[C@@H]2[C@@H](CCO)O[C@]3(C(=O)N(Cc4ccc(N(C=O)c5ccccc5)cc4)c4ccccc43)[C@H]2C)cc1` then?
// result -3.73

// query Another compound: `NCCCCCCNC(=O)[C@@H]1C[C@@H]2C(=O)NCC(=O)N2[C@@H]1c1ccc(O)cc1`
// result 1.03

// query Do the same for CC(=O)n1cc(C(O)C2C=CC3C(=O)N(c4ccccc4)C(=O)C3N2Nc2ccc([N+](=O)[O-])cc2)c2ccccc21 (configuration not stated) please
// result -0.438

// query Then what about the compound `COc1cccc(-c2cccc(=O)o2)c1` ?
// result 5.22
